- Experimental Protocol: protease stability score; higher = more stable; yeast display proteolysis, trypsin and chymotrypsin;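 note: relative to predicted unfolded state with 0 unfolded-like and 1 meaning tenfold more protease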
Response key: Criterion met means protease stability score >= 1; Criterion not met means protease stability score < 1.

Residues: DEEKEHAKEMLELHLRLWLTGNEDKLHRLADPHVRMTIDGKEFIGREEMIKAIREHLKRLGVDHVRIHWTRLHVVDGQIDLHTHIRLHVDGRTIEIESEIISVVFNGVMKSIEWKFK
Category Label: Criterion met
--
Residues: REEEKMFTMILEIIKHSLVTGDEDLTRNLVDPNMRLEINGQEVHGREEILRVLLELRVKEMHIDDVKFQGDKAEIDGTLDIEWNGQEDHLKVEIIFRKINGRWHIESIRLE
Category Label: Criterion met
--
Residues: HESDKLVDEIFKTFIHAIVTGDEETLKTMLDPNTKFILIYGDKYHEHHGWRDLIRWLREIRIREIIHRHVENQGDKVHHEGELRGEFNGKEIRTEIHIHMVVVNGKLRRMEWEIK
Category Label: Criterion met
--
Residues: SEEERLARVFVELLLEISKTGDERMWKWLADPHYRLIIDGVRFHGRETLEREFKRFDYIHDVRLNDMIINGEHLILDVRVHGQQGDKEINIRTFLVVLKVDGVWVLKSVHIH
Category Label: Criterion met
--
Residues: NEEFRDAQMAAHEFINVMETGDEHLLSRRLDPNMRVDINGREFHGWEQWVRIFREIRVKSIRYEEIRVQGDKVHLHTRLHVTIGDYEFTTETTIFIDKINGVWYIKEFHMN
Category Label: Criterion not met
--
Residues: SEEEEDLKTMSDFVLHLFETGDEDIFNHFADPDARLHIGDKIAHGREHFKRVFEDLMHRLGVDHIEIRRRSITIIGDKVHAHVDGLTVIGDKVHHVELRFVIVKYNGRWFLKRVEVHNR
Category Label: Criterion met

---

- Experimental Protocol: protease stability score; higher = more stable; yeast display proteolysis, trypsin and chymotrypsin;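 note: relative to predicted unfolded state with 0 unfolded-like and 1 meaning tenfold more protease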
Output true for protease stability score not less than 1; output false otherwise.

Residues: DEMKEEQRKFSELAIHNFETGDEDTFHRLADPHTKVEINGVLHIGRETVTTFFSHYWELFGVDHFEEKDRKIEIQGEKVITRIRGIIHFNGRQTDVLIRLEIRKINGRWILHSFTIEHI
Category Label: false
--
Residues: SEEEEWIRRALEILIEIIRTGDEDSSKRYVDPHVRLHIGDKEFHGREDFTRMVHELFNRVDHIEIRIHDMRIINGQAHVDTELILRQGDKEIVLRTEIVLLKFDGKWIMESVHIR
Category Label: true
--
Residues: DEDDRHSERMSEYMIKVWMTGDEDAEKRLFDPHARIDVDGQEFIGREELHKISHEHLRKLGFDHFHVRHVELRLIDGKAHLSLDTEVRVGDFKFETSIYNNFEKVNGKWEIRELQVRIR
Category Label: true
--
Residues: SEEERVLREAIKLLEHLLRTGDEKSFHELFDPDVKIEIGDKEVHGRERWVELYRTWGLENVESHVRVDDERIQGDKMEMDMQLDLRYDGRIDTTKVIILATKINGRWKLEHFEEE
Category Label: false
--
Residues: SEHHEVTEKLTRIILHQWDTGNERSLRKMMDPNARVEIEIGDKSWEYHGRENFRHAVERFDYLDNKEHKDERIVGDFSIIDGRVDGVQGDKRYDTNVEIIIIIVNGRIRAIRFIVR
Category Label: true
--
Residues: DEEEKIARELSRLLAEIIETGDEDILLRMVDPHARFIINGKTIIGRETMWELWRRHVEKLGVSRIISRLRRIHVIDGRVHVHIEETFNGRTQEVRVDYMKIDGVWLIHEISIE
Category Label: true
--
Residues: DEKTEKEQRWFEEILHAILTGDEEFLLRNADPNTRSHFNGRDVHGMELLSEIWTKHVEDLGFDHAHIRSVKVFDGRFILNMQIHVNGVELDVHLIYDVVDGVVKRVIVETHKH
Category Label: false
--
Residues: DEVDHMIELVTRLFIHAVLTGDEKILRDLMDPHVRVHVDGKKLHGWKEFIDWLREELERYDHFHFRVHHYNVVNGRVHADGNLDVHFNGRKHHITTDLRLIIWDGRIKTVDIRHH
Category Label: true
--
Residues: SEEEELADIALREIIETLRTGNEELLDKLVDPHVKILFDGREFIGRKDYLRLLREIRIHHVTIEDMEVQGEKVHINMRVDGEINGRRNDYKVQLIALKFNGKWIIEHEHLH
Category Label: true
--
Residues: TEDEDRLTEMIEELLHALLTGDEKRKDELIDPHTKLDVNGRERHGMEEIKKNWRKLGVERIDLRVRERRIVNGVAHIRGDLHVGDKSMEVHIVFVKVDGRWIVHSFFIH
Category Label: true
--
Residues: HEEERIVEEVAKHFLHHFVTGDWHNLARLADPHVRSDINGRELHGWETLIHVMLKDLRRLGFKHFEVHHVHIQGDKYHNDGTLDYNGVKVRSHLEFQIVDGKLHQMRVQDK
Category Label: true
--
Residues: DEDERQLEESLKHWIKALETGNEEEVMRLLDPNVKIEIGDKDLHGMEAEEERLRKVKGMRIEFRLRDMKHIGDKIDIDGELRLNFNGVDIKSKIIIFAHKFNGRWINRRIIVL
Category Label: true
--
Residues: DDWLEDTKRLLEEFRQAINTGDEELLKILFDPHVRMNIDGVELHGRSVLEHFLERYDVIKVRRHHITDLKFQGNYLIIHLKTDIQIDIGDKHYKEEREVEMVVEKVNGRWIIRLMTER
Category Label: true
--
Residues: HEEEEREKEISDTFLMAWRTGDWKFFHELADPHVRVEIGDKRFIGRELLTKHMRHNVNKVKGMTHTLTHIIIQGDKIHLDGELIVDGRSHKVDFHIIVIDGRLHSLHVIIS
Category Label: false
--
Residues: DEHEHQADHMQEILIRSHETGDEDLIREFFDPHARLDIGDKHNIGRESIKRFIHELLRILGLDNITLRVRHKTIQGDKIITHLELEVNGKRLEVIIHNEKINGQWSVRKVEWR
Category Label: true
--
Residues: DEDSEVLSRILLHLTHHFSTGDFKEVTEMFDPHARAFVGDKELVGMELLRKFLHDLTKRLGVDHHDLRDDHIEIQGDKLRSEGKLRIDVNGREIKHHVHWILEKIDGRWVIREFRIV
Category Label: true
--
Residues: SHEEEMAERALRKFIHSVQTGDEDSWEELLDPNVRINIGDKRHVGRHEAVKLFRQRIRHLRIDHIELRERDYYGDKLILRIIVEGRFNGQETTLELHIVFWKFDGRWIIESMEHK
Category Label: true
--
Residues: DDIRKWMEHVFRDFNRSLKTGDERRSLELLDPHARIDINGVELIGREMFRKELHEMRIHVDDFDIESVDIQGDKVHLRTRVRVTIIVDGVKIHEERELEIHLHKFDGRWYIKEIRVR
Category Label: true
--
Residues: SEEDRFAIEVSEELSRAIETGDEDRLRHLLDPNVKVNVGDKTLHGREEYLHYLRELLRDLGVDVIHIEFQDVRFIGDKLVIDGSLDLRVGDKVIEHKITIIIWKFDGRWVSHSEHIH
Category Label: true
--
Residues: DEEDEEFKRAMDDWIRAILTGDEQRVEELFDPNVRFQVNGKETVGRDFLIHYVREWRLDSKVDIKRSEVQGDKVRVDVTMKLTIDVNGQRIHDQHKVTIIAEKIDGRWEIKELIVH
Category Label: false
--
Residues: SQEERELHRALKELFDRFITGDWDKLQKLLDPEVRLNINGQEIHGREEVWKRKIEEFEKFGIDHIKFHLEHERRQGDKIELDGRLEIRVGDKRLEHEVRIVFLKIDGKWILRSEEIN
Category Label: true
--
Residues: TEDERDFREFWERWLHNTVTGDEELLSRMMDPHAKLHVGDKENVGMEEAARLFVEISDELRLHSFHIRHEEHQGDKVILHTRMNVRINGKEINFRTVMIVRKIDGRWIIRSFQID
Category Label: false

---

- Experimental Protocol: protease stability score; higher = more stable; yeast display proteolysis, trypsin and chymotrypsin;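 note: relative to predicted unfolded state with 0 unfolded-like and 1 meaning tenfold more protease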
Record rule met whenever protease stability score is at 2 or higher; record rule not met when lower.

Residues: REEEEHAEYVIRVWERLLETGDEHEVARLLDPEVRLNIDGVDIHGREDIIRWLKHIRIEIEDSDHKRIEVQGEKIHLDGHRKEVIHVGDKKIRREHRIKLELVWIDGKITSLNVVLH
Category Label: rule not met

Residues: DELDRLAEDWVKIIIHSLKTGDEDTLHKMADPNYQVEIGDFRFHGRERWIHVLREHREELGVTRVHSELHELHTFNGRAVSVVDLHVNGVTLHVIVFVRKVNGRWQDTSQVYKYE
Category Label: rule not met

Residues: HEDEKEAEDAVREFLHNVSTGDEERMLELMDPNARLIYNGREYHGRELITHLIRELGVKVVRWRHLEVQGEKVHVDLRDTVGDKTIKTHLIFHKINGKWKVDEVKFD
Category Label: rule met

Residues: REEEEHAHRIFEILVRLWLTGDEDTYLNLADPHDLIEIDQGDKRDENHGRESAFHLWEWFLREMRIKRMILRDERVQGEKLEFDVEVRGNINGVDLRFRVHIIIVVINGRFKSSKVILN
Category Label: rule not met

Residues: DHQEEEAKEFTELLMRNLFTGDEDSLQEMLDPHVRIEVDIGDKHRHHHGREEISHFLVRLQHELGVDHIRLSHIEVFNGRAEVHIESYIGNKRSENVFVVTKFNGVWRVQRIIIRVE
Category Label: rule not met

Residues: DEDHQASRLVFELLDRAWKTGDEQILNEMMDPHVKVVFNGVELHGRSALERLMKELRIDTLHLDHTEIYDGRMETEGKVDGEYNGRTLHHITKIRFEKIDGRWVEREVVIK
Category Label: rule not met

Residues: HEDDRIVQEHWKRLSEAWLTGDEERAKKNADPNTREVINGKELHGREEVTRLYREIRRSIEHVEIRDSRIQGDKLLIDVNMVISVIIGDKEFRIEVRVNVIMIKFDGVWHLETVHFH
Category Label: rule not met

Residues: NEDEEIVRERFEEFLDMMFTGDWTSLEKLLDPHYRLDIGDKHHHGREEFIEFVRKIKNLRIDIKRVSVIVIDGRAINHVDGVLHFNGKTEKVHIIVVAKKIDGRWIVERVTIETH
Category Label: rule met

Residues: DEHDESVRTAWEYYKRVIETGDEDISKKLADPHMKFEFENHSIHGWENIYRELTRLMREMRIHHVEIEHFRVYGDFVEIHIRVDGTVNGRRIITKMDLYITKIDGKWYLHSRRIE
Category Label: rule not met

Residues: DEHTKFLEKLLRDWMESVLTGDEHLIKRYADPNVRLDFNGQQFHGRDSMVHLLKEWRIKHFKLDSFFAIDGVTFVDGESRGEVNGQETENRLHVEIFVVNGKVTHVKIRIL
Category Label: rule not met

Source of measurements: the NTF2 design screens of Basanta et al. (2020)
